system: Candida parapsilosis; assay: Antifungal activity against Candida parapsilosis ATCC 22019 after 48 to 72 hrs by disk diffusion method; assay type: functional
Could you please report measured diameter of the inhibition zone (DIZ) for the items listed next?
Answers are plain numbers, in mm.

Consider the worked cases shown below.
compound | diameter of the inhibition zone (DIZ), mm
C=CCCCCCCCCC(=O)O[C@H]1CC[C@]2(C)[C@H]3CC[C@]4(C)[C@@H]([C@H](C)CCCC(C)C)CC[C@H]4[C@@H]3C[C@@H](Br)[C@@]2(Br)C1 | 12.8
CC(C)CCC[C@@H](C)[C@H]1CC[C@H]2[C@@H]3C[C@@H](Br)[C@@]4(Br)C[C@@H](OC(=O)CCCCCCCCC(Br)CBr)CC[C@]4(C)[C@H]3CC[C@]12C (stereo partly drawn) | 14.4
CC(C)CCC[C@@H](C)[C@H]1CC[C@H]2[C@@H]3CC=C4C[C@@H](OC(=O)CCCCCCCCC(Br)CBr)CC[C@]4(C)[C@H]3CC[C@]12C (stereo partly drawn) | 16.8
CC(C)CCC[C@@H](C)[C@H]1CC[C@H]2[C@@H]3CC=C4C[C@@H](OC(=O)CCCCCCCCC5CO5)CC[C@]4(C)[C@H]3CC[C@]12C (stereo partly drawn) | 16.9
C=CCCCCCCCCC(=O)O[C@H]1CC[C@@]2(C)C(=CC[C@H]3[C@@H]4CC[C@H]([C@H](C)CCCC(C)C)[C@@]4(C)CC[C@@H]32)C1 | 15.1
CCCCC/C=C\CCC(O)CCCCCCCC(=O)O[C@H]1CC[C@@]2(C)C(=CC[C@H]3[C@@H]4CC[C@H]([C@H](C)CCCC(C)C)[C@@]4(C)CC[C@@H]32)C1 (stereo partly drawn) | 19.8

Could I get diameter of the inhibition zone (DIZ) for every one of these entries?
1. CCCCCCCC/C=C\CCCCCCCC(=O)O[C@H]1CC[C@@]2(C)C(=CC[C@H]3[C@@H]4CC[C@H]([C@H](C)CCCC(C)C)[C@@]4(C)CC[C@@H]32)C1 [CHOLESTERYL OLEATE]
2. CCCCCCC(O)C/C=C\CCCCCCCC(=O)O[C@H]1CC[C@@]2(C)C(=CC[C@H]3[C@@H]4CC[C@H]([C@H](C)CCCC(C)C)[C@@]4(C)CC[C@@H]32)C1 (stereo partly drawn)

[15.7, 17.8]
